IC50 values for Vascular endothelial growth factor receptor 2 (Homo sapiens, UniProt P35968) compiled from several publications are listed below.

{"Smiles data": "CCC(CC)CCNC(=O)c1ccccc1NCc1ccnc(NC(=O)c2cnco2)c1", "IC50, nM": 15}
{"Smiles data": "COc1cc2nccc(Oc3ccc(NC(=O)NC4CC4)c(Cl)c3)c2cc1C(=O)NCCO", "IC50, nM": 2.2}
{"Smiles data": "Cc1ccc(F)c(NC(=O)Nc2ccc(C#Cc3ccc4nccn4n3)cc2)c1", "IC50, nM": 101}

###

A compilation of IC50 values for Vascular endothelial growth factor receptor 2 (Homo sapiens, UniProt P35968) from the published literature.
Reported property: IC50

{"Smiles data": "COc1cc2nccc(Oc3ccc(NC(=S)NC4CC4)c(Cl)c3)c2cc1C(=O)N1CC(F)(F)C1", "System name": "Vascular endothelial growth factor receptor 2 (Homo sapiens, UniProt P35968)", "Observed result": "200 to 1000 nM"}
{"Smiles data": "COc1cc2nccc(Oc3ccc(NC(=S)NC4CC4)c(Cl)c3)c2cc1C(N)=O", "System name": "Vascular endothelial growth factor receptor 2 (Homo sapiens, UniProt P35968)", "Observed result": "< 50 nM"}
{"Smiles data": "O=C(c1cc(NS(=O)(=O)c2cccc(Cl)c2)ccc1F)c1c[nH]c2ncc(Cl)cc12", "System name": "Vascular endothelial growth factor receptor 2 (Homo sapiens, UniProt P35968)", "Observed result": "≤ 10000 nM"}
{"Smiles data": "Nc1nc(N[C@@H](CO)c2ccccc2)cc(-c2cc(-c3ccc4[nH]ccc4c3)ccc2O)n1", "System name": "Vascular endothelial growth factor receptor 2 (Homo sapiens, UniProt P35968)", "Observed result": "< 1000 nM"}
{"Smiles data": "COc1cc2nccc(Oc3ccc(NC(=O)c4c(C)n(C)c(C)c(C5CC5)c4=O)cc3)c2nc1OC", "System name": "Vascular endothelial growth factor receptor 2 (Homo sapiens, UniProt P35968)", "Observed result": "> 300 nM"}
{"Smiles data": "COc1cc(-c2cc3nccc(-c4cccc(O)c4)c3o2)cc(OC)c1OC", "System name": "Vascular endothelial growth factor receptor 2 (Homo sapiens, UniProt P35968)", "Observed result": "3000 to 50000 nM"}
{"Smiles data": "O=C(Nc1ccc(Oc2cc(-c3cnn(CCN4CCOCC4)c3)ncn2)cc1)Nc1ccc(Cl)c(C(F)(F)F)c1", "System name": "Vascular endothelial growth factor receptor 2 (Homo sapiens, UniProt P35968)", "Observed result": "≤ 10000 nM"}
{"Smiles data": "O=C(Nc1ccc(Oc2ccnc3cc(OCCCN4CCOCC4)c4c(c23)OCCO4)cc1Cl)c1cccn(-c2ccc(F)cc2)c1=O", "System name": "Vascular endothelial growth factor receptor 2 (Homo sapiens, UniProt P35968)", "Observed result": "≤ 50 nM"}
{"Smiles data": "CC(C)n1cc(C(=O)Nc2ccc(Oc3ccnc4cc(OCCCN5CCCCC5)c5c(c34)OCCO5)c(F)c2)c(=O)n(-c2ccc(F)cc2)c1=O", "System name": "Vascular endothelial growth factor receptor 2 (Homo sapiens, UniProt P35968)", "Observed result": "50 to 500 nM"}
{"Smiles data": "COc1cc(-c2cc3nccc(-c4cc(OC(C)C)cc(C(=O)O)c4)c3o2)cc(OC)c1OC", "System name": "Vascular endothelial growth factor receptor 2 (Homo sapiens, UniProt P35968)", "Observed result": "300 to 3000 nM"}
{"Smiles data": "COc1cnc2[nH]cc(C(=O)c3c(F)ccc(NS(=O)(=O)N4CCCC4)c3F)c2c1", "System name": "Vascular endothelial growth factor receptor 2 (Homo sapiens, UniProt P35968)", "Observed result": "≤ 10000 nM"}
{"Smiles data": "CCCCS(=O)(=O)Nc1ccc(F)c(C(=O)c2c[nH]c3ncc(-c4cnn(C)c4)cc23)c1F", "System name": "Vascular endothelial growth factor receptor 2 (Homo sapiens, UniProt P35968)", "Observed result": "≤ 10000 nM"}
{"Smiles data": "Cc1cc(CNc2ccc(Cc3c[nH]c4ncncc34)c(F)n2)ccn1", "System name": "Vascular endothelial growth factor receptor 2 (Homo sapiens, UniProt P35968)", "Observed result": "≤ 10000 nM"}
{"Smiles data": "COc1cc(O[C@@H]2CCN(C)CC2(F)F)c2c(Oc3ccc4[nH]c(C)cc4c3F)ncnc2c1", "System name": "Vascular endothelial growth factor receptor 2 (Homo sapiens, UniProt P35968)", "Observed result": "< 10 nM"}
{"Smiles data": "COc1cc2nccc(Oc3ccc(NC(=S)NC4CC4)nc3)c2cc1C(N)=O", "System name": "Vascular endothelial growth factor receptor 2 (Homo sapiens, UniProt P35968)", "Observed result": "200 to 1000 nM"}
{"Smiles data": "N#Cc1ccnc2[nH]cc(C(=O)c3c(F)ccc(NS(=O)(=O)C4CCC4)c3F)c12", "System name": "Vascular endothelial growth factor receptor 2 (Homo sapiens, UniProt P35968)", "Observed result": "≤ 10000 nM"}
{"Smiles data": "Cn1cc(-c2cc(Oc3cccc(NC(=O)c4ccc(-n5cccc5)cc4)c3)ccn2)cn1", "System name": "Vascular endothelial growth factor receptor 2 (Homo sapiens, UniProt P35968)", "Observed result": "> 10000 nM"}
{"Smiles data": "CN1CCN(c2ccc(Nc3ncc(-c4cccc(OCc5ccccc5)c4)o3)cc2)CC1", "System name": "Vascular endothelial growth factor receptor 2 (Homo sapiens, UniProt P35968)", "Observed result": "< 1000 nM"}
{"Smiles data": "CCCCc1ncc(CNc2ccc(Cc3c[nH]c4ncncc34)c(F)n2)cn1", "System name": "Vascular endothelial growth factor receptor 2 (Homo sapiens, UniProt P35968)", "Observed result": "≤ 10000 nM"}
